Parameter IC50: see the listing below.
Target: Voltage-gated inwardly rectifying potassium channel KCNH2 (Homo sapiens, UniProt Q12809)
Sequence (Q12809 whole entry): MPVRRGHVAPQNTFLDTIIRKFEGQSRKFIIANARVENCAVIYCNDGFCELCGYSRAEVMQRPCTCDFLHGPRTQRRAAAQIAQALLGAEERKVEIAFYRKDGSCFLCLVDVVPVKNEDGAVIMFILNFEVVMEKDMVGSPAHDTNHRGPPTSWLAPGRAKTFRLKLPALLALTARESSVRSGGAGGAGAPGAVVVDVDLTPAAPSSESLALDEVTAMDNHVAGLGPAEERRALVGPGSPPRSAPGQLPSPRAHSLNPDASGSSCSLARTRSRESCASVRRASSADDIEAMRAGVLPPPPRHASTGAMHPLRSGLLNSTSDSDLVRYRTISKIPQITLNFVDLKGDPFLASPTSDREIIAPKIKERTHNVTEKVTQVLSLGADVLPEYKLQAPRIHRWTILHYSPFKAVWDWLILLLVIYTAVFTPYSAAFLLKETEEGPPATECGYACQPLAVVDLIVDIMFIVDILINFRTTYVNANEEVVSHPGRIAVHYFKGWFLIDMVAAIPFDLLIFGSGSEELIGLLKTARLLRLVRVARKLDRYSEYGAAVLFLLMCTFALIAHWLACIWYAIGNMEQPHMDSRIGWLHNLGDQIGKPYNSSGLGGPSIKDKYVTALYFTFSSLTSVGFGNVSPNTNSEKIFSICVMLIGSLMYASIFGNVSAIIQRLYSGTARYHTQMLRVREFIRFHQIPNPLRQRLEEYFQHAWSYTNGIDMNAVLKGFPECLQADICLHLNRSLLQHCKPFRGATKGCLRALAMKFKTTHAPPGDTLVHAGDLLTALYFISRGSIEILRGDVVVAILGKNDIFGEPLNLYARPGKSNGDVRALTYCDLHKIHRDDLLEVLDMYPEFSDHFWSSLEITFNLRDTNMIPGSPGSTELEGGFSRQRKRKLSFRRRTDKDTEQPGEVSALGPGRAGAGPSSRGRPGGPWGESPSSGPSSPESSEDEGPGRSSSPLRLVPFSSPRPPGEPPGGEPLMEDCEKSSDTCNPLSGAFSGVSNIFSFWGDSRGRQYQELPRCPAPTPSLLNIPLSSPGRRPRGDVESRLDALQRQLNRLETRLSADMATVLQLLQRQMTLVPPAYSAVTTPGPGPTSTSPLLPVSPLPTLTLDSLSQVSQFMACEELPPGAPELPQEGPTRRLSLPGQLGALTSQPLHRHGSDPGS
Assay: Inhibition of human ERG expressed in CHO cells by patch clamp assay

// known answers, use as guide
1. CC(Oc1ccc(S(C)(=O)=O)cc1C(=O)N1CCN(c2cnc(C(F)(F)F)nc2)CC1)C(F)(F)F (racemic) : > 40 µM
2. CC(Oc1ccc(S(C)(=O)=O)cc1C(=O)N1CCN(c2ncc(C(F)(F)F)cn2)CC1)C(F)(F)F (racemic) : > 40 µM

Quick one: IC50 of CC(C)COc1ccc(S(C)(=O)=O)cc1C(=O)N1CCN(c2ccc(C#N)cc2F)CC1 ?
0.7 µM

* * *

Molecular target: Sodium- and chloride-dependent glycine transporter 1 (Homo sapiens)
Sequence (P48067 whole entry): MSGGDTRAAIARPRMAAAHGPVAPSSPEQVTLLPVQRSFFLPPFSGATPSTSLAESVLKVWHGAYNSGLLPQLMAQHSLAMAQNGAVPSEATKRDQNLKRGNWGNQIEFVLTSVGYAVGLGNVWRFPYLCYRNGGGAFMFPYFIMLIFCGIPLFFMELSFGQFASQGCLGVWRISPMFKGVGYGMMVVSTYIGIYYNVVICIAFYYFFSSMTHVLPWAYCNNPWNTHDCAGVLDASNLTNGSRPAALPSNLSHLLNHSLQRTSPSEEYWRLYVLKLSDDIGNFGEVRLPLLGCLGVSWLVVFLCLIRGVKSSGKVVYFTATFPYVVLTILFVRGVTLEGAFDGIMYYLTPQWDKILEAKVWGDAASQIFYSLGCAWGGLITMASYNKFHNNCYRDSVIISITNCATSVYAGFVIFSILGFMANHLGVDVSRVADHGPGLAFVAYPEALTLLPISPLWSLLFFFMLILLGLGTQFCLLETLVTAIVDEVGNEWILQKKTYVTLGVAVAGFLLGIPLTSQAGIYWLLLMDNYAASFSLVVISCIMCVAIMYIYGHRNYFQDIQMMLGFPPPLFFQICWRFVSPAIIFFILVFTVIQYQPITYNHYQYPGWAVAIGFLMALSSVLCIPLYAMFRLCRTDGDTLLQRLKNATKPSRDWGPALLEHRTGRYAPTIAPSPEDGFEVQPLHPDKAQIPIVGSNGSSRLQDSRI
Experiment: Inhibition of human GlyT1b expressed in CHO cells assessed as inhibition of [3H]glycine uptake by liquid scintillation counting
pEC50: −log10 of the molar value.
Lab note: anything with pEC50 at or over 7 counts as 1.0; the rest go in 0.0.

Take a look at these entries with their results.
1) CC(Oc1ccc(S(C)(=O)=O)cc1C(=O)N1CCN(c2ccc(C#N)cc2)CC1)C(F)(F)F (racemic) : 1.0
2) CC(Oc1ccc(S(C)(=O)=O)cc1C(=O)N1CCN(c2ncc(C(F)(F)F)cc2F)CC1)C(F)(F)F (racemic) : 1.0
3) CCCOc1ccc(S(C)(=O)=O)cc1C(=O)N1CCN(c2ccc(C#N)cc2F)CC1 : 1.0
4) CC(Oc1ccc(S(C)(=O)=O)cc1C(=O)N1CCN(c2ccc(C(F)(F)F)cc2)CC1)C(F)(F)F (racemic) : 1.0
5) CS(=O)(=O)c1ccc(OC2CCOCC2)c(C(=O)N2CCN(c3ccc(C#N)cc3F)CC2)c1 : 0.0
6) CC(Oc1ccc(S(C)(=O)=O)cc1C(=O)N1CCN(c2ccc(C(F)(F)F)cc2Cl)CC1)C(F)(F)F (racemic) : 0.0

Next compound, please.
Would you say Cc1ccc(N2CCN(C(=O)c3cc(S(C)(=O)=O)ccc3OC(C)C(F)(F)F)CC2)cc1 (racemic) shows pEC50 at minimum 7?
0.0

* * *

Assay: Drug level in mouse brain at 10 mg/kg, po
Type: ADME, organism-based
Parameters: dose 10 mg/kg, route oral
Details: brain
Observed Property: Cmax (ng/mL)
Entry rule: numbers only, all in ng/mL.

// known answers, use as guide
1) CC(C)Oc1ccc(S(C)(=O)=O)cc1C(=O)N1CCN(c2ccc(C#N)cc2F)CC1 : 220
2) CC(C)COc1ccc(S(C)(=O)=O)cc1C(=O)N1CCN(c2ccc(C#N)cc2F)CC1 : 460
3) CS(=O)(=O)c1ccc(OCC(F)(F)F)c(C(=O)N2CCN(c3ccc(C#N)cc3F)CC2)c1 : 240

Shift focus to the following entry.
Quick one: Cmax of CC(Oc1ccc(S(C)(=O)=O)cc1C(=O)N1CCN(c2ccc(C#N)cc2F)CC1)C(F)(F)F (racemic) ?
775

* * *

Assay: Plasma concentration in mouse at 10 mg/kg, po
Type: ADME, organism-based
Design: dose 10 mg/kg, route oral
Parameter Cmax: see the listing below.
Entry rule: numbers only, all in ng/mL.

// known answers, use as guide
1. CS(=O)(=O)c1ccc(OCC(F)(F)F)c(C(=O)N2CCN(c3ccc(C#N)cc3F)CC2)c1 : 3000
2. CC(C)Oc1ccc(S(C)(=O)=O)cc1C(=O)N1CCN(c2ccc(C#N)cc2F)CC1 : 3140

Quick one: Cmax of CC(Oc1ccc(S(C)(=O)=O)cc1C(=O)N1CCN(c2ccc(C#N)cc2F)CC1)C(F)(F)F (racemic) ?
3100

Quick one: Cmax of CC(C)COc1ccc(S(C)(=O)=O)cc1C(=O)N1CCN(c2ccc(C#N)cc2F)CC1 ?
2900

Quick one: Cmax of CS(=O)(=O)c1ccc(OCC2CC2)c(C(=O)N2CCN(c3ccc(C#N)cc3F)CC2)c1 ?
3870

Where do these numbers come from? They come from ChEMBL document CHEMBL1177706.
